Reference source: the supplement of paper PMC11061612

# System: VMRC-RCZ (Kidney Carcinoma);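 note: after 72 h of two-drug dosing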
# TEST NAME: Bliss excess, mean over the matrix (fraction); higher = more synergy
EXPERIMENTAL READOUT: Bliss excess
In your answer, state the number alone without any accompanying words.

State the recorded Bliss excess for this entry: CCN(CCO)CCCOc1ccc2c(Nc3cc(CC(=O)Nc4cccc(F)c4)[nH]n3)ncnc2c1 [AZD2811] + O=C(c1cc(Cc2n[nH]c(=O)c3ccccc23)ccc1F)N1CCN(C(=O)C2CC2)CC1 [Olaparib] (first compound max 1 µM, 7x7, partner max 10 µM) -0.0325

Please report the recorded Bliss excess for N#Cc1cnc(Nc2cc(NC[C@H]3CNCCO3)c(C(F)(F)F)cn2)cn1 [SRA737] + Nc1ccn([C@@H]2O[C@H](CO)[C@@H](O)C2(F)F)c(=O)n1 [Gemcitabine] (first compound max 10 µM, 7x7, partner max 0.3 µM) . 0.0299

I have this compound here, COc1nnc2ccc(N3CCC(c4ccc(OCCN5CCN(C)C(=O)[C@H]5C)cc4)CC3)nn12 [AZD5153] + Cc1c2c(nn1C)CSCc1cc(n(C)n1)CSc1cc(c3ccccc3c1)OCCCc1c(C(=O)O)n(C)c3c-2c(Cl)ccc13 [AZD5991] (first compound max 1 µM, 7x7, partner max 1 µM) , and I need its recorded Bliss excess. -0.022

Requested field: Bliss excess. Item: Cc1c2c(nn1C)CSCc1cc(n(C)n1)CSc1cc(c3ccccc3c1)OCCCc1c(C(=O)O)n(C)c3c-2c(Cl)ccc13 [AZD5991] + C=CCn1c(=O)c2cnc(Nc3ccc(N4CCN(C)CC4)cc3)nc2n1-c1cccc(C(C)(C)O)n1 [AZD1775] (first compound max 1 µM, partner max 1 µM) 0.0212
